Numbers sourced from PubChem BioAssay (Tox21).

assay: qHTS assay to identify small molecule antagonists of the estrogen related receptor signaling pathway with the pleiotropic PPARgamma coactivator (PGC) from Tox21 10K library - cell viability counter screen (AID 1224840); details: PGC/ERR reporter cells viability, CellTiter-Fluor, 17.5 h; series mostly up to 92.4 µM; note: nearly all actives have a fitted effect of over 40% in size
Records with an inconclusive call do not appear. The source made the active and inactive calls. Calls come from the whole dose curve; as a rule, active = well fitted cell-killing curve with a large enough effect in the repeat runs (not every such curve was filed as active); inconclusive = weak or mixed curves, or effect the other way; inactive = no such curve, though single readings can be large or run the other way.
Outcomes: YES (active), NO (inactive)

1) CC1=C(CC=O)C(C)(C)CCC1 :: NO
2) Oc1c(I)cc(I)c2cccnc12 :: NO
3) CC(CC1c2ccccc2CCc2ccccc21)CN(C)C (configuration not stated) :: NO
4) Nc1ccc(N=Nc2ccccc2)c(N)c1 :: YES
5) CNC(=O)c1cnn(-c2nc(N)c3ncn([C@@H]4O[C@H](CO)[C@@H](O)[C@H]4O)c3n2)c1 :: NO
6) C=CC(C)(CCC=C(C)C)OC(=O)CC(C)C (configuration not stated) :: NO
7) Cc1cscn1 :: NO
